The values you see were collected from patent US20240190893A1.

Reported AC50 by item:
# System: MOLP-8 human multiple myeloma cell line
# EXPERIMENTAL_DETAILS: Caspase-Glo 3/7 apoptosis induction assay in MOLP-8 cells
# Assay type: cell-based
# STUDY_CONDITIONS: Homo sapiens, MOLP-8, 2 h, MOLP8 cells, 2 hours at 37° C.; averaged over all runs on all batches

COMPOUND | AC50 [nM]
Cc1nn(C)c(C)c1-c1c(Cl)ccc2c3c(C(=O)O)n(c12)CCSCc1cc(n(C)n1)CCc1cc(c2ccc(F)cc2c1)OCCC3 (single isomer, unassigned) | 237
COCCn1nc(C)c(-c2c(Cl)ccc3c4c(C(=O)O)n(c23)CCCSCc2cc(n(C)n2)CCc2cc(c3ccc(F)cc3c2)OCCC4)c1C (single isomer, unassigned) | 232
Cc1nn(C)c(C)c1-c1c(Cl)ccc2c3c(C(=O)O)n(c12)CCCSCc1cc(n(C)n1)CCc1cc(c2ccc(F)cc2c1)OCCC3 [Compound 1] | 90.5
Cc1nn(C)c(C)c1-c1c(Cl)ccc2c3c(C(=O)O)n(c12)CCSCc1cc(n(C)n1)CSc1cc(c2ccccc2c1)OCCC3 (single isomer, unassigned) | 1340
Cc1nn(C)c(C)c1-c1c(Cl)ccc2c3c(C(=O)O)n(c12)CCCSCc1cc(n(C)n1)CCc1cc(c2ccc(F)cc2c1)OCCC3 (single isomer, unassigned) [Compound 2] | 130
Cn1cc(-c2c(Cl)ccc3c4c(C(=O)O)n(c23)CCCSCc2cc(n(C)n2)CCc2cc(c3ccc(F)cc3c2)OCCC4)cn1 | 1340
Cc1nn(C)c(C)c1-c1c(Cl)ccc2c3c(C(=O)O)n(c12)CCSCc1cc(n(C)n1)CCc1cc(c2ccccc2c1)OCCC3 (single isomer, unassigned) | 1460
Cc1nn(C)c(C)c1-c1c(Cl)ccc2c3c(C(=O)O)n(c12)CCCS(=O)(=O)Cc1cc(n(C)n1)CCc1cc(c2ccc(F)cc2c1)OCCC3 (single isomer, unassigned) | 7030

* * *

# TARGET_UNDER_TEST: UniProt:Q07820
# Sequence (Q07820 whole entry): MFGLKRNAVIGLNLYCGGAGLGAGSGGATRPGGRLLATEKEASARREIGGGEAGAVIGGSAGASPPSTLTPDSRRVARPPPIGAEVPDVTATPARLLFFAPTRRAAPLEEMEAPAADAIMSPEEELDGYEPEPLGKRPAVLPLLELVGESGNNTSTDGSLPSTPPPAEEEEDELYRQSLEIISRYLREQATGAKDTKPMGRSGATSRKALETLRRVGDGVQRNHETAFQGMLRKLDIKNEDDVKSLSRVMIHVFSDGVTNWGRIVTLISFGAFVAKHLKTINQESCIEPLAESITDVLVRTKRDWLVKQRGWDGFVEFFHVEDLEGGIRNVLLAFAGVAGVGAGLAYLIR
pKi: −log10 of the molar value.
VALUE_TYPE: pKi

COMPOUND | REPORTED_RESULT
Cc1nn(C)c(C)c1-c1c(Cl)ccc2c3c(C(=O)O)n(c12)CCSCc1cc(n(C)n1)CCc1cc(c2ccccc2c1)OCCC3 (single isomer, unassigned) [Compound 11] | 9.51
Cc1nn(C)c(C)c1-c1c(Cl)ccc2c3c(C(=O)O)n(c12)CCCSCc1cc(n(C)n1)CCc1cc(c2ccc(F)cc2c1)OCCC3 (single isomer, unassigned) [Compound 2] | 10.08
COCCOCc1nn(C)c(C)c1-c1c(Cl)ccc2c3c(C(=O)O)n(c12)CCCSCc1cc(n(C)n1)CCc1cc(c2ccc(F)cc2c1)OCCC3 (single isomer, unassigned) [Compound 20] | 10.14
Cc1c(-c2c(Cl)ccc3c4c(C(=O)O)n(c23)CCCSCc2cc(n(C)n2)CCc2cc(c3ccc(F)cc3c2)OCCC4)c(CO)nn1C (single isomer, unassigned) [Compound 17] | 10.10
Cc1nn(C)c(C)c1-c1c(Cl)ccc2c3c(C(=O)O)n(c12)CCSCc1cc(n(C)n1)CCc1cc(c2ccccc2c1)OCCC3 (single isomer, unassigned) [Compound 12] | 9.40
